- tested-target: Torsin-1A (Homo sapiens) (UniProt O14656)
- Sequence (O14656 whole entry, looked up): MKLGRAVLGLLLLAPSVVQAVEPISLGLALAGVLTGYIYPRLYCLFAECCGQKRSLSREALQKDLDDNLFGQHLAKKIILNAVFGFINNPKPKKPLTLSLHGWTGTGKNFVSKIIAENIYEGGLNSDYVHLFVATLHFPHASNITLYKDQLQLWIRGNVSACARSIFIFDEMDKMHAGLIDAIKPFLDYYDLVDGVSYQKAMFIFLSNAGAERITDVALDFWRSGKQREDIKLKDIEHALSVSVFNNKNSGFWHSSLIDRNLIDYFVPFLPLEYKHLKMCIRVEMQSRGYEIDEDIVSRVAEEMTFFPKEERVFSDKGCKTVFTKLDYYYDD
- measurement-notes: small-molecule binders of mutant TOR1A in lysate, primary screen, cell lysate, small-molecule microarray, COS7 lysate, 635/667 nm fluorescence (AID 1150);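 note: score pools 667 nm emission and signal to noise measuring lysate protein binding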
- protocol-conditions: COS7 hTOR1A mutant lysate, 635 nm fluorescence, higher = more signal
recorded-endpoint: composite z-score
Lab note: write the figure by itself, no unit.

Solved entries (count: 6):
CCOC(=O)C1=CCC(c2cc3ccccc3[nH]2)N(S(=O)(=O)c2ccccc2[N+](=O)[O-])C1 (configuration not stated) : 0.609
COCCOC(=O)N1C(=O)[C@@]2(c3cc(C#CC4=CCCCC4)ccc31)[C@H](c1ccccc1OCCO)N1[C@H](c3ccccc3)[C@H](c3ccccc3)OC(=O)[C@H]1[C@@H]2C(N)=O : 0.137
COc1cccc(OC)c1C(=O)O[C@H]1[C@@H]2OC(=O)[C@H](Cc3cccc(Br)c3)C/C=C/C[C@@H](Cc3cccc(Br)c3)C(=O)O[C@H]2[C@@H](OC)O[C@@H]1CO : 0.529
CCCCC(=C=CC[C@@H](O)c1cccc(OCCO)c1)C[C@@H](O)COCc1ccccc1 : -0.444
[N-]=[N+]=NCc1ccccc1C[C@]1(C(=O)N2CCOCC2)N=C(c2ccc(OCCCO)cc2)O[C@H]1c1ccccc1CN=[N+]=[N-] : 0.863
COC(=O)[C@H](Cc1ccc(O)cc1)N1CC2=CCCC=C[C@@H]2[C@H]1[C@H](O)Cc1ccccc1 : -0.0258

We now examine a further compound.
Sure, the documented composite z-score for C=CC[C@]1(C(=O)NCCCOC)N=C(c2ccc(OCCCO)cc2)O[C@H]1c1ccccc1 is 1.37

---

Each entry below carries its reported z-score.
- measurement-notes: yeast growth modulation, basal conditions, primary screen, YJM789 clinical isolate, OD600, 24 h (AID 1089);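 note: growth of clinical yeast isolate S. cerevisiae YJM 789 seeded 1000 cells per well; test concentration not given here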
- protocol-conditions: S. cerevisiae YJM789 growth, higher = more signal, called active from +8 up or from −8 down
Calls of active or inactive are those of the source.

NC(=O)NCC#Cc1ccc2c(c1)[C@]1(C(=O)N2)[C@H](C(=O)Nc2nc3ccccc3s2)[C@H]2C(=O)O[C@H](c3ccccc3)[C@H](c3ccccc3)N2[C@@H]1c1ccc(OCCO)cc1 : 1.83 (inactive)

Sure, the documented z-score for N[C@@H](Cc1ccccc1)Cn1cc(C2(O)CCCCC2)nn1 is -0.692 (inactive)

Sure, the documented z-score for Cc1c(-c2ccc(-c3ccc(Cl)c(Cl)c3)o2)nc(-c2ccccc2)c2c1CO[Si]2(C(C)C)C(C)C is -0.657 (inactive)

Sure, the documented z-score for COc1ccc(CCNC(=O)[C@@H]2c3ccccc3C(=O)N(CC34CC5CC(CC(C5)C3)C4)[C@H]2c2ccc(CO)cc2)cc1 is -0.543 (inactive)

---

- measurement-notes: small-molecule microarray binders of probe aWnt5a, primary screen, biochemical, biotinylated probe, 635/667 nm fluorescence (AID 1113);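 note: score merges 667 nm fluorescence intensity with signal-to-noise per printed feature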
- protocol-conditions: higher = more signal
The label depends only on composite z-score: Y if it is at least -0.1, N if it is smaller.

CCN(CC)c1ccc(N2CC=CC34O[C@@H]5C=CCOC(=O)[C@@H]5[C@H]3C(=O)N(CCCO)[C@@H]4C2=O)cc1 (some centres not stated) : N
COc1ccc(CCNC(=O)[C@@]2(Sc3ccc(C)cc3)CC(=O)N(C(C)C)[C@@H]2c2ccc(CO)cc2)cc1 : N
COCCOC(=O)N1C(=O)[C@@]2(c3cc(C#CC4=CCCCC4)ccc31)[C@H](C(=O)N1CCc3cc(OC)c(OC)cc3C1)[C@H]1C(=O)O[C@H](c3ccccc3)[C@H](c3ccccc3)N1[C@@H]2c1ccc(O)cc1 : Y
C=CCC(OC(C)=O)[C@@H]1[C@@H](N(Cc2ccc(-c3cccc(C(F)(F)F)c3)o2)C(=O)c2cccc3ccccc23)c2cc(OCCCO)ccc2N1C(=O)c1ccc2ccccc2n1 (some centres not stated) : Y
C=CCC(OC(C)=O)[C@@H]1[C@@H](N(Cc2ccc(-c3ccccc3)cc2)C(=O)c2cccc3ccccc23)c2cc(OCCCO)ccc2N1C(=O)c1ccc2ccccc2c1 (some centres not stated) : Y

Read the next record carefully.
Could you tell me if the measured composite z-score of CCCCN1CC=CC23O[C@@H]4C=CCOC(=O)[C@@H]4[C@H]2C(=O)N(C(CO)C(C)C)[C@@H]3C1=O (some centres not stated) reaches -0.1 or more?
N

---

- measurement-notes: HepG2 cell viability effects, profiling panel, calcein-AM fluorescence, 48 h, basal (AID 1164); note: test concentration not given here
- protocol-conditions: higher = more signal
recorded-endpoint: z-score
Lab note: write the figure by itself, no unit.

Solved entries (count: 5):
C[C@H]1C2[C@H](Cc3ccccc3)NC(=O)[C@]23C(=O)NCC(=O)N2CCC[C@H]2C(=O)NC/C=C\C/C=C/C3[C@@H]2O[C@]12C (stereo partly specified) : 0.409
C[C@H]1NC(=O)C([C@@H](C)OCc2ccccc2)NC(=O)[C@@]23C(=O)N[C@@H](Cc4ccccc4)C2[C@H](C)[C@@]2(C)O[C@H]2C3/C=C/C/C=C\CNC1=O (stereo partly specified) : 0.14
C=CCOC(=O)[C@@H]1[C@H]2C(=O)O[C@H](c3ccccc3)[C@H](c3ccccc3)N2[C@H](c2ccc(OCCOC(=O)[C@H]3C[C@H]4C(=O)NCC(=O)N4[C@H]3c3ccc(O)cc3)cc2)[C@@]12C(=O)Nc1ccc(I)cc12 : 0.273
Cc1c(-c2ccc(-c3ccc(Cl)c(Cl)c3)o2)nc(-c2ccccc2)c2c1CO[Si]2(C(C)C)C(C)C : 0.0118
CCOC(=O)C[C@H]1[C@H](OC(=O)Cc2ccc3c(c2)OCO3)[C@@H](NC(=O)c2ccccc2)c2cc(OCCCO)ccc2N1C(=O)Cc1ccc(OC)cc1 : 1.01

We now examine a further compound.
Sure, the documented z-score for CCOC(=O)C1=C(C(=O)OCC)N(S(=O)(=O)CC[Si](C)(C)C)[C@H](c2ccccc2)CC1 is -2.78

---

Each entry below carries its reported composite z-score.
- tested-target: Torsin-1A (Homo sapiens) (UniProt O14656)
- measurement-notes: torsin A binders from cell lysate, primary screen, small-molecule microarray, wild-type, 635/667 nm (AID 1149)
- protocol-conditions: COS7 hTOR1A-WT lysate, 635 nm fluorescence, higher = more signal
Lab note: write the figure by itself, no unit.

Solved entries (count: 5):
C=C(CCCC)C(=O)CC[C@H](OC(=O)c1cccnc1)c1ccc(CO)o1 : 0.835
COCCOC(=O)N1C(=O)[C@@]2(c3cc(C#CCC(C(=O)OC)C(=O)OC)ccc31)[C@H](C(=O)N1CCCCCCC1)[C@H]1C(=O)O[C@H](c3ccccc3)[C@H](c3ccccc3)N1[C@@H]2c1ccccc1OCCO : 1.27
CC(C)C[C@@H]1NC(=O)[C@H]2C[C@@H](C(=O)NCCCCCCNC(=O)CS)[C@@H](c3ccc(O)cc3)N2C1=O : 1
C[C@]1(C(=O)NCC(F)(F)F)c2ccccc2C(=O)N(Cc2ccc(OC(F)(F)F)cc2)[C@H]1c1ccc(CO)cc1 : -0.906
CC(C)C[C@H]1NC(=O)[C@H](Cc2ccccc2)NC(=O)[C@@]23C(=O)N[C@@H](Cc4ccccc4)C2[C@H](C)[C@@]2(C)O[C@H]2C3/C=C/C/C=C\CNC1=O (stereo partly specified) : 0.471

We now examine a further compound.
Summary: COCCOC(=O)N1C(=O)[C@@]2(c3cc(C#CC4(O)CCCCCC4)ccc31)[C@H](c1ccc(OCCO)cc1)N1[C@H](c3ccccc3)[C@H](c3ccccc3)OC(=O)[C@H]1[C@@H]2C(=O)N1CCCCCCC1 , Torsin-1A (Homo sapiens) (UniProt O14656), composite z-score = 1.12

---

- Tested on: Lefty1
- measurement-notes: Lefty1 binders on small-molecule microarrays, primary screen, biochemical, small-molecule microarray, 635/667 nm fluorescence (AID 1139)
- protocol-conditions: small-molecule microarray binding, fluorescence 635/667; higher = more signal
recorded-endpoint: composite z-score
Lab note: write the figure by itself, no unit.

COc1ccc(NN2C(C(O)c3ccc(OC)cc3)C=CC3C(=O)N(C4CCCCC4)C(=O)C32)cc1 (centres undefined) : 0.433
CC(C)(C)OC(=O)CC[C@]1(C(=O)N2CCOCC2)N=C(c2ccc(OCCCO)cc2)O[C@H]1c1ccccc1CN=[N+]=[N-] : 0.23
CN1C(=O)C2C(C1=O)C1C=C(c3ccc(CO)cc3)C2C(c2cccs2)N1C (centres undefined) : -0.295
COCCOC(=O)N1C(=O)[C@@]2(c3ccccc31)[C@H](c1ccc(OCCO)cc1)N1[C@H](c3ccccc3)[C@H](c3ccccc3)OC(=O)[C@H]1[C@@H]2C(=O)N1CCN(c2ncccn2)CC1 : 1.37
CC(C)CNC(=O)[C@@H]1c2ccccc2C(=O)N(C2Cc3ccccc3C2)[C@H]1c1ccc(CO)cc1 : -0.499
COCCOC(=O)N1C(=O)[C@@]2(c3cc(C#CCC(C(=O)OC)C(=O)OC)ccc31)[C@H](C(N)=O)[C@H]1C(=O)O[C@H](c3ccccc3)[C@H](c3ccccc3)N1[C@@H]2c1ccc(OCCO)cc1 : 0.596
[N-]=[N+]=NCc1ccccc1[C@@H]1OC(c2ccc(OCCCO)cc2)=N[C@]1(Cc1ccccc1)C(=O)NCc1ccccc1 : -0.0948
COC(=O)[C@@]1(Cc2ccc(OC)cc2)[C@@H]2[C@@H](CC(=O)[C@H]2CC(=O)C(=O)N2CCCC2)CN1C(=O)c1ccccc1 : -0.265
C=CC[C@@]1(C(=O)N(C)C)N=C(c2ccc(OCCCO)cc2)O[C@@H]1c1ccccc1 : -0.68
NCCCC[C@@H]1NC(=O)[C@H]2C[C@@H](C(=O)NCc3ccc(F)cc3)[C@@H](c3cccc(OCCO)c3)N2C1=O : 1.56

Sure, the documented composite z-score for O=C1N(Cc2ccccc2)c2ccccc2[C@H]2OC(c3ccc(OCCCO)cc3)=N[C@@]12Cc1ccccc1 is 0.584

Sure, the documented composite z-score for CO[C@H]1O[C@H](CO)[C@@H](OC(=O)Nc2ccccc2)[C@@H]2OC(=O)[C@H](Cc3ccccc3)C/C=C/C[C@@H](Cc3ccccc3)C(=O)O[C@@H]12 is 1.33

Sure, the documented composite z-score for COc1ccc(CCNC(=O)[C@@H]2c3ccccc3C(=O)N(CC34CC5CC(CC(C5)C3)C4)[C@H]2c2ccc(CO)cc2)cc1 is 0.867

Sure, the documented composite z-score for Cc1ccc(S[C@]2(C(=O)NC3CC3)CC(=O)N(Cc3cc(C(F)(F)F)cc(C(F)(F)F)c3)[C@@H]2c2ccc(CO)cc2I)cc1 is -0.337
